System: A. baumannii 6963
experimental_details: Colistin broth microdilution MIC with potentiator compounds, resistant clinical isolates (Example 3)
Format: cell-based, Acinetobacter baumannii
assay_context: MIC in the presence of 1.0% DMSO / MIC in the presence of 0.1 mM compound and 1.0% DMSO, positive = increased susceptibility, 1 = no effect
metric: Fold increase in bacterial susceptibility to colistin

Past entries and their recorded results:
CCOC(=O)c1cc2cc(C(=O)N3CCN(Cc4cccc(C(F)(F)F)c4)CC3)ccc2[nH]1 +2 fold
N#Cc1cccc(CN2CCC(c3cnn(Cc4cccc(C#N)c4)c3)CC2)c1 +4 fold
O=C(CCCN1C(=O)c2cccc3cccc(c23)C1=O)N1CCN(c2ccccc2O)CC1 +2 fold
O=C(NCC(=O)N1CCN(c2cccc(Cl)c2)CC1)c1cccc(NC(=O)c2cccnc2)c1 +2 fold

Switching to the query record.
Notebook: CN(C)CCNC(=O)c1cccc(CNC(=O)Nc2ccc3c(c2)Cc2ccccc2-3)c1 , Fold increase in bacterial susceptibility to colistin read as >4 fold

###

Test system: Escherichia coli ATCC 9637
experimental_details: Colistin broth microdilution MIC with potentiator compounds (Example 1)
Format: cell-based
assay_context: E. coli ATCC 9637; MIC in the presence of 1.0% DMSO / MIC in the presence of 0.1 mM potentiator compound and 1.0% DMSO; positive = increased, negative = decreased susceptibility, 1 = no effect
Overview of reported Fold increase in bacterial susceptibility to colistin across a group of molecules:
Number only, in fold; omit the unit.

molecule	value_measured
O=C(NCC(=O)N1CCN(c2cccc(Cl)c2)CC1)c1cccc(NC(=O)c2cccnc2)c1 [IIC]	1

Attention now turns to another entry.
// returns Fold increase in bacterial susceptibility to colistin for N#Cc1cccc(CN2CCC(c3cnn(Cc4cccc(C#N)c4)c3)CC2)c1 [IID] with Escherichia coli ATCC 9637; value = 1

###

experimental_details: Solubility of the stock solution in methanol
Assay type: physicochemical
assay_context: organic solvent or mixture; 100% Methanol; fairly soluble, required vigorous vortex
Description: Selected compound of formula I was first dissolved in 100% of Methanol (HPLC Gradient Grade CHROMASOLV. Sigma, 34885-1L-R) to 10 mM. The compound was fairly soluble in methanol up to 10 mM and required vigorous vortex.
metric: solubility

Noted for CN(C)CCNC(=O)c1cccc(CNC(=O)Nc2ccc3c(c2)Cc2ccccc2-3)c1 : its solubility reads ≤ 10 mM

###

Test system: Enterobacter aerogenes ATCC 13048
experimental_details: Colistin broth microdilution MIC with potentiator compounds (Example 1)
Type: cell-based
assay_context: E. aerogenes ATCC 13048; MIC in the presence of 1.0% DMSO / MIC in the presence of 0.1 mM potentiator compound and 1.0% DMSO; positive = increased, negative = decreased susceptibility, 1 = no effect
metric: Fold increase in bacterial susceptibility to colistin

Please review the following examples before continuing.
N#Cc1cccc(CN2CCC(c3cnn(Cc4cccc(C#N)c4)c3)CC2)c1 1 fold
O=C(NCC(=O)N1CCN(c2cccc(Cl)c2)CC1)c1cccc(NC(=O)c2cccnc2)c1 1 fold
CN(C)CCNC(=O)c1cccc(CNC(=O)Nc2ccc3c(c2)Cc2ccccc2-3)c1 +2 fold
O=C(CCCN1C(=O)c2cccc3cccc(c23)C1=O)N1CCN(c2ccccc2O)CC1 1 fold

Field: next compound
Notebook: CCOC(=O)c1cc2cc(C(=O)N3CCN(Cc4cccc(C(F)(F)F)c4)CC3)ccc2[nH]1 , Fold increase in bacterial susceptibility to colistin read as 1 fold
